Origin of the recorded values: patent US5190946A

Tested on: adriamycin-resistant subline (P388/ADR)
method-description: inhibition of growth rate of adriamycin-resistant subline P388/ADR
Assay type: cell-based, murine
run-parameters: Mus musculus, P388/ADR, P388/ADR cells, compound alone; read-out: B: IC50 for the adriamycin-resistant subline (P388/ADR)
Where a name gives a salt, the structure may show the parent alone.
measure-name: IC50 (µM)
Give bare numbers, in µM.

# example entries with known answers
compound	value-measured
CCC(C(=O)OCCN1CCN(CCOC(=O)C(CC)c2ccccc2Cl)CC1)c1ccccc1Cl (centres unmarked) [Compound 1779, dihydrochloride]	40
CCC(C(=O)OCCN1CCN(CCOC(=O)C(CC)c2ccc(F)cc2)CC1)c1ccc(F)cc1 (centres unmarked) [Compound 1777, dihydrochloride]	60

Query compound follows.
# compound CCC(C(=O)OCCN1CCN(CCOC(=O)C(CC)c2ccccc2C)CC1)c1ccccc1C.Cl.Cl (centres unmarked) [Compound 1776, dihydrochloride] ; its IC50 = 30
